Just for reference, paper PMC9298037 is where these values come from.

IC50 tested on UniProt Q14680: recorded values
Sequence (Q14680 whole entry): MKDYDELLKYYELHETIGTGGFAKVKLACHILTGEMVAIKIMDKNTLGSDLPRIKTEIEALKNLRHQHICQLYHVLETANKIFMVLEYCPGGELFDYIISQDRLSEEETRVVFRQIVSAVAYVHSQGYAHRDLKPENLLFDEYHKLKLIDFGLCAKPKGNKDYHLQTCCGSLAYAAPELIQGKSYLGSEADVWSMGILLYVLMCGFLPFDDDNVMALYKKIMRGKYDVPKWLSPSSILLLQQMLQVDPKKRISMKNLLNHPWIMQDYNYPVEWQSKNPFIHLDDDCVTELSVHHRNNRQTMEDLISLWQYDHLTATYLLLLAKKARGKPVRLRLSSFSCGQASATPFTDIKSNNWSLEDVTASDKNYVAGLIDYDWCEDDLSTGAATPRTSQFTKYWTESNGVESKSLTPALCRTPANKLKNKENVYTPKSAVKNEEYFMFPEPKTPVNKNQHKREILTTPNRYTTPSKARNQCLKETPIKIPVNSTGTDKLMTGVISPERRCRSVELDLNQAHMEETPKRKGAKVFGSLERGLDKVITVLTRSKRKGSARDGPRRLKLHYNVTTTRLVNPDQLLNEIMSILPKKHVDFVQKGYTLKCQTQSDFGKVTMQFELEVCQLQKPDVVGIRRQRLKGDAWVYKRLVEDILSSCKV
MEASURED_PARAMETER: IC50 (µM)

Answered cases to consult:
// field: IC50; key: "COc1ccc(-c2nc3c(C)c4ccccc4cn3n2)cc1" ; value = 3.67

For reference, reported IC50 for "COc1cccc(-c2nc3c(C)c4ccccc4cn3n2)c1" stands at 4.93

get_value(item= "CCc1c2ccccc2cn2nc(-c3cccc(OC)c3)nc12" , readout=IC50) returns 2.04

(I) CCc1c2ccccc2cn2nc(-c3ccc(OC)cc3)nc12
(II) Cc1c2ccccc2cn2nc(-c3ccc(Cl)cc3Cl)nc12
Two entries are listed, I and II . Which one carries the higher IC50? Write the label of whichever entry you select.
II
